FYI, the data here is from patent US12473299B2.

Test system: single-stranded oligo RNA 5′-r(AGCAAAAAACGC)-3′ (SEQ ID No. 18)
assay.notes: Double-strand forming ability (Tm) with single-stranded oligo RNA
Type: binding
measurement.conditions: Tm change per artificially modified nucleic acid base vs 5′-GCGTTTTTTGCT-3′
[HNA] = hexitol nucleic acid; d = 2'-deoxy (DNA)
observed.property: ssRNA ΔTm/mod.

>  <substance>
5′-d(GCG111111GCT)-3′ (DNA GCGTTTTTTGCT; BANA-T1 modified nucleotides; modified_base (4)..(9) ANA-t1) [5′-GCG111111GCT-3′]

>  <target.under.test>
single-stranded oligo RNA 5′-r(AGCAAAAAACGC)-3′ (SEQ ID No. 18)

>  <ssRNA ΔTm/mod.>
+3.3 °C

$$$$
>  <substance>
5′-d(GCGTT1TTTGCT)-3′ (DNA GCGTTTTTTGCT; BANA-T1 modified nucleotide; modified_base (6)..(6) t = BANA-t1) [5′-GCGTT1TTTGCT-3′]

>  <target.under.test>
single-stranded oligo RNA 5′-r(AGCAAAAAACGC)-3′ (SEQ ID No. 18)

>  <ssRNA ΔTm/mod.>
−4 °C

$$$$
>  <substance>
5′-d(GCGTTHTTTGCT)-3′ (DNA GCGTTTTTTGCT; sugars from the 5' end d5 [HNA]1 d6, backbone not given here) [H=HNA-T, reference compound]

>  <target.under.test>
single-stranded oligo RNA 5′-r(AGCAAAAAACGC)-3′ (SEQ ID No. 18)

>  <ssRNA ΔTm/mod.>
+1 °C

$$$$

Next item in the queue.
Query: Given 5′-d(GCG222222GCT)-3′ (DNA GCGTTTTTTGCT; BANA-T2 modified nucleotides; modified_base (4)..(9) t = BANA-t2) [5′-GCG222222GCT-3′, 2=Compound 19 (BANA-T2)] , report its ssRNA ΔTm/mod. on single-stranded oligo RNA 5′-r(AGCAAAAAACGC)-3′ (SEQ ID No. 18).
Response: +4.5 °C
